Every entry's value here was drawn from patent US9809557B2.

# assay: Solubility at acidic pH, with and without DMA cosolvent
# Format: physicochemical
# conditions: demineralized water, 37 °C, pH 3.4, water, thermodynamic from solid, pH 3.4, hydrochloride salt in demineralized water, 3 days
measurement.name: solubility at 3 days (µg/mL)
One number for each entry, in µg/mL.

Enquiry: What solubility at 3 days value was documented for this compound, COc1ccc2cc(C(C)C(=O)OCCn3ccnc3-c3ccccc3)ccc2c1 (stereo not shown) ?
Return: 6800

* * *

Consider the following compounds; for each one, report its solubility thermodynamic.
# assay: Solubility of the prodrugs in PBS (67 mM phosphate buffer pH 7.4)
# conditions: 67 mM phosphate buffer pH 7.4 (PBS), 37 °C, pH 7.4, aqueous buffer, thermodynamic from solid
Answers are plain numbers, in µg/mL.

Worked examples follow.
[
  {
    "compound": "CC(C)Cc1ccc(C(C)C(=O)OCCn2cnc3ccccc32)cc1 (stereo not shown) [DPX-3-0006]",
    "measurement.name": "solubility thermodynamic",
    "units.label": "µg/mL",
    "experimental.value": 4
  },
  {
    "compound": "Cn1ccnc1CCOC(=O)Cc1ccccc1Nc1c(Cl)cccc1Cl [DPX-1-0011]",
    "measurement.name": "solubility thermodynamic",
    "units.label": "µg/mL",
    "experimental.value": 0.1
  },
  {
    "compound": "COc1ccc2cc(C(C)C(=O)OCCc3ccccn3)ccc2c1 (stereo not shown) [DPX-2-0004]",
    "measurement.name": "solubility thermodynamic",
    "units.label": "µg/mL",
    "experimental.value": 19
  },
  {
    "compound": "O=C(Cc1ccccc1Nc1c(Cl)cccc1Cl)OCCc1ccccn1 [DPX-1-0004]",
    "measurement.name": "solubility thermodynamic",
    "units.label": "µg/mL",
    "experimental.value": 3
  }
]

From here, focus on the item given below.
Enquiry: What solubility thermodynamic value was documented for this compound, O=C(Cc1ccccc1Nc1c(Cl)cccc1Cl)OCCn1ccnc1 [DPX-1-0005] ?
Return: 1

* * *

# assay: Solubility of the prodrugs in PBS (67 mM phosphate buffer pH 7.4)
# conditions: PBS (67 mM phosphate buffer pH 7.4), 37° C.
Consider the following compounds; for each one, report its Sprodrug ± SD.
One number for each entry, in mM.

Worked examples follow.
[
  {
    "compound": "COc1ccc2cc(C(C)C(=O)OCCc3ccccn3)ccc2c1 (stereo not drawn)",
    "units.label": "mM",
    "Sprodrug ± SD": 0.052
  },
  {
    "compound": "CC(C)Cc1ccc(C(C)C(=O)OCCc2ccccn2)cc1 (stereo not drawn)",
    "units.label": "mM",
    "Sprodrug ± SD": 0.044
  },
  {
    "compound": "O=C(Cc1ccccc1Nc1c(Cl)cccc1Cl)OCCn1cnc2ccccc21",
    "units.label": "mM",
    "Sprodrug ± SD": 0.015
  },
  {
    "compound": "CC(C)Cc1ccc(C(C)C(=O)OCCn2cnc3ccccc32)cc1 (stereo not drawn)",
    "units.label": "mM",
    "Sprodrug ± SD": 0.012
  },
  {
    "compound": "O=C(Cc1ccccc1Nc1c(Cl)cccc1Cl)OCCn1ccnc1",
    "units.label": "mM",
    "Sprodrug ± SD": 0.003
  }
]

From here, focus on the item given below.
Enquiry: What Sprodrug ± SD value was documented for this compound, `O=C(Cc1ccccc1Nc1c(Cl)cccc1Cl)OCCn1ccnc1-c1ccccc1` ?
Return: 0.086

* * *

# assay: Stability (cleavage to parent drug) of prodrug suspensions in PBS pH 7.4
# Type: physicochemical
# conditions: appearance of parent drug in PBS pH 7.4 suspension, 37° C.
measurement.name: apparent pseudo-zero-order rate constant k0 (M/day)
Give bare numbers, in M/day.

Field: apparent pseudo-zero-order rate constant k0. Fill in for each record below.
1. CC(C)Cc1ccc(C(C)C(=O)OCCc2ccccn2)cc1 (stereo not shown)
2. CC(C)Cc1ccc(C(C)C(=O)OCCn2cnc3ccccc32)cc1 (stereo not shown)

Return:
1. 1e-06
2. 5.7e-07

Field: apparent pseudo-zero-order rate constant k0. Fill in for each record below.
1. O=C(Cc1ccccc1Nc1c(Cl)cccc1Cl)OCCc1ccccn1
2. COc1ccc2cc(C(C)C(=O)OCCc3ccccn3)ccc2c1 (stereo not shown)

Return:
["1.1e-06", "1.7e-06"]

* * *

# assay: Solubility of the prodrugs in PBS (67 mM phosphate buffer pH 7.4)
# conditions: 67 mM phosphate buffer pH 7.4 (PBS), 37 °C, pH 7.4, aqueous buffer, thermodynamic from solid
Consider the following molecules; for each one, report its solubility thermodynamic.

Worked examples follow.
[
  {
    "mol": "O=C(Cc1ccccc1Nc1c(Cl)cccc1Cl)OCCCCCCn1ccnc1",
    "solubility thermodynamic": "< 0.3 µg/mL"
  },
  {
    "mol": "CN(CCOC(=O)Cc1ccccc1Nc1c(Cl)cccc1Cl)c1ccccc1",
    "solubility thermodynamic": "< 0.1 µg/mL"
  },
  {
    "mol": "O=C(Cc1ccccc1Nc1c(Cl)cccc1Cl)OCCOCCn1ccnc1-c1ccccc1",
    "solubility thermodynamic": "< 0.3 µg/mL"
  }
]

From here, focus on the item given below.
Enquiry: What solubility thermodynamic value was documented for this molecule, `CN(C)c1ccc(CCOC(=O)Cc2ccccc2Nc2c(Cl)cccc2Cl)cc1` ?
Return: 0.01 µg/mL

* * *

# assay: Solubility of the prodrugs in PBS (67 mM phosphate buffer pH 7.4)
# conditions: PBS (67 mM phosphate buffer pH 7.4), 37° C.
measurement.name: Sprodrug ± SD

Worked examples follow.
[
  {
    "molecule": "CCCc1nccn1CCCCCCOC(=O)Cc1ccccc1Nc1c(Cl)cccc1Cl [DPX-1-0010]",
    "experimental.value": "<0.0008 mM"
  },
  {
    "molecule": "COc1ccc2cc(C(C)C(=O)OCCn3ccnc3-c3ccccc3)ccc2c1 (stereo not drawn) [DPX-2-0007]",
    "experimental.value": "7 ± 1 µg/mL"
  },
  {
    "molecule": "O=C(Cc1ccccc1Nc1c(Cl)cccc1Cl)OCCCCCCn1ccnc1 [DPX-1-0009]",
    "experimental.value": "<0.0007 mM"
  },
  {
    "molecule": "CN(CCOC(=O)Cc1ccccc1Nc1c(Cl)cccc1Cl)c1ccccc1 [DPX-1-0002]",
    "experimental.value": "<0.0002 mM"
  },
  {
    "molecule": "COc1ccc2cc(C(C)C(=O)OCCN(C)c3ccccc3)ccc2c1 (stereo not drawn) [DPX-2-0002]",
    "experimental.value": "<0.0006 mM"
  }
]

Field: Sprodrug ± SD. Fill in for each record below.
1. CN(C)c1ccc(CCOC(=O)C2CCn3c(C(=O)c4ccccc4)ccc32)cc1 (stereo not drawn) [DPX-4-0001]
2. COc1ccc2cc(C(C)C(=O)OCCCN(C)c3ccccc3)ccc2c1 (stereo not drawn) [DPX-2-0003]
3. O=C(Cc1ccccc1Nc1c(Cl)cccc1Cl)OCCOCCn1ccnc1-c1ccccc1 [DPX-1-0012]
4. COc1ccc2cc(C(C)C(=O)OCCc3ccc(N(C)C)cc3)ccc2c1 (stereo not drawn) [DPX-2-0001]

Return:
["0.05 ± 0.03 µg/mL", "<0.003 mM", "<0.0006 mM", "<0.0008 mM"]
